Values were extracted from PubChem BioAssay (NCI).

system: T-47D breast; assay: NCI tumour cell line growth inhibition, 48 h
In this section we review reported GI50 values for a set of compounds.
Reported metric: GI50

Compound | Study system | Observed
CCOc1cc(/C=C/C(=O)CC(=O)/C=C/c2ccc(OC(=O)CNCCN(CC)CC)c(OCC)c2)ccc1OC(=O)CNCCN(CC)CC | T-47D breast | 6.41 µM
Cc1ccccc1CNc1c2ccccc2nc2ccccc12 | T-47D breast | 2.08 µM
COC(=O)C1=Nc2ccc(F)cc2/C1=C/c1sc(=S)[nH]c1O | T-47D breast | 4.41 µM
Cc1ccc(-c2nc(C(Cl)Cl)nc3cc(C)nn23)cc1 | T-47D breast | 2.86 µM
C=CC[PH+](c1ccccc1)c1ccccc1.C=CC[PH+](c1ccccc1)c1ccccc1.[Pt+2].[S-]c1ncccn1.[S-]c1ncccn1 | T-47D breast | 3.71 µM
Oc1ccc(-c2[nH]c3ccccc3c2-c2nc3ccccc3o2)cc1 | T-47D breast | 3.08 µM
O=C1C2C(C(=O)N1CC[Se][Se]CCN1C(=O)C3C(C1=O)[C@H]1C=C[C@@H]3C1)[C@H]1C=C[C@@H]2C1 (stereo not given in full) | T-47D breast | 2.09 µM
CCc1ccc(C2=NN(c3ccc(S(C)(=O)=O)cc3)C(=O)CC2)cc1 | T-47D breast | 4.44 µM
COC(=O)c1ccc2c(c1)C(=O)c1c-2n(CCCCl)c(=O)c2cc(OC)c(OC)cc12 | T-47D breast | > 100 µM
N=C(N)c1ccc(OCCCCCOc2ccc(C(=N)N)cc2)cc1 | T-47D breast | 1.14 µM
